Data provenance is patent US20150352075A1.

molecular target: Immunoprecipitated GSK-3β from hippocampus of wild-type mice (Mus musculus, UniProt Q9WV60); construct: the hippocampus of two month-old wild-type mice were lysed in immunoprecipitation buffer; from tissue; host or cells: hippocampus of two-month-old wild-type mice (immunoprecipitated with anti-GSK-3β antibody, Santa Cruz); assay: Luminometric GSK-3β activity assay; type: biochemical; details: 25 μM pGS-2 peptide substrate, 10 μM ATP, preincubation 10 min; read-out: inhibition constant (IC50) of GSK-3β activity
Sequence (Q9WV60 whole entry): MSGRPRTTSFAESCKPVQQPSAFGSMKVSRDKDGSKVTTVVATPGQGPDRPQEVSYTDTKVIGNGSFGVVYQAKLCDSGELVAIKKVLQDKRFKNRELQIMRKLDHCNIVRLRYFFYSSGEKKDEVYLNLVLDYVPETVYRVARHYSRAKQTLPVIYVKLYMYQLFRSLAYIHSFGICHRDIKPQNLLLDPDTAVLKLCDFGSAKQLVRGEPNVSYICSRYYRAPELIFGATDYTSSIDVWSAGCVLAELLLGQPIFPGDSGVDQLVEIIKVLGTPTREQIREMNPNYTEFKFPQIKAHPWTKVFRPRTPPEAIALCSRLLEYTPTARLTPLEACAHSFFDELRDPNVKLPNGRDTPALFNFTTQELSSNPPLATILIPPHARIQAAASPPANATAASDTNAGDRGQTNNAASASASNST
VALUE_KIND: pIC50
Give only the number. pIC50 is defined as minus log10 of concentration in molar units.

Which pIC50 value belongs to C=C1CC[C@@H]2C(C)(CO)C(O)CC[C@@]2(C)C1C/C=C1/C(=O)OCC1O (stereo in doubt) [ANDRO] ?
5.25

---

biological target: Immunoprecipitated GSK-3β from hippocampus of wild-type mice (Mus musculus); construct: the hippocampus of two month-old wild-type mice were lysed in immunoprecipitation buffer; from tissue; host or cells: hippocampus of two-month-old wild-type mice (immunoprecipitated with anti-GSK-3β antibody, Santa Cruz); assay: Luminometric GSK-3β activity assay; type: biochemical; conditions: different concentrations of ATP; read-out: IC50 using different concentrations of ATP
VALUE_KIND: IC50

Which IC50 value belongs to C=C1CC[C@@H]2C(C)(CO)C(O)CC[C@@]2(C)C1C/C=C1/C(=O)OCC1O (stereo in doubt) ?
~5.58 µM
